Entry source: patent US10183944B2

systemUnderTest: UniProt O60674
Sequence (O60674 808-1132): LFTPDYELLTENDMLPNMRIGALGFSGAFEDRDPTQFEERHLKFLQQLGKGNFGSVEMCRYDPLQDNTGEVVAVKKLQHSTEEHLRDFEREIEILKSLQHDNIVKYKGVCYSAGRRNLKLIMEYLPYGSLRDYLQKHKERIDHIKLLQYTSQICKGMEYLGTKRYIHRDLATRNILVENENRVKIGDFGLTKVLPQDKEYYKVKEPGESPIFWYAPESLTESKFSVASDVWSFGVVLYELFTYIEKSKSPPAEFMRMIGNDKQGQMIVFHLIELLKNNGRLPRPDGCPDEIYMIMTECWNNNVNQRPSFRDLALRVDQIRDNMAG
testMethodNotes: Inhibition of enzymatic JAK2 kinase activity (TR-FRET)
Format: biochemical
condition: read-out: IC50 JAK
From the text: The objective of this assay was to screen compounds in a Time-resolved fluorescence resonance energy transfer (TR-FRET) Enzymatic assay method for their potential to inhibit JAK2 (Janus kinase) activity. TR-FRET assays are homogeneous proximity assays where Eu-labeled antiphosphotyrosine antibody binds to the phosphorylated substrates labeled with Ulight fluorescence acceptor. […]
Structures can show the parent of a compound that is named as a salt.
readoutType: IC50

| molecule | systemUnderTest | result |
| --- | --- | --- |
| N#CCC1CCN(c2nc(Nc3ccc(N4CCC5(CC4)CC5C(=O)O)nc3)c3c(=O)[nH]ncc3n2)CC1 (stereo not drawn) [Example 148] | UniProt O60674 | < 50 nM |
| N#CC1CCN(c2nc(Nc3ccc(CN4CCNCC4)cc3)c3c(=O)[nH]ncc3n2)CC1 [Example 56, hydrochloride] | UniProt O60674 | < 50 nM |
| O=c1[nH]ncc2nc(N3CCCCCC3)nc(Nc3ccc(OCCO)cc3)c12 [Example 294] | UniProt O60674 | < 50 nM |
| N#CCC1CCN(c2nc(Nc3ccc(OC4CCN(CCO)CC4)cc3)c3c(=O)[nH]ncc3n2)CC1 [Example 291] | UniProt O60674 | < 50 nM |
| CCN1CCN(c2ccc(Nc3nc(N4CCC(CC#N)CC4)nc4cn[nH]c(=O)c34)cc2)CC1=O [Example 178] | UniProt O60674 | < 10 nM |
| CC(C)(CO)N1CCCN(c2ccc(Nc3nc(N4CCC(CC#N)CC4)nc4cn[nH]c(=O)c34)cc2)CC1 [Example 297] | UniProt O60674 | < 50 nM |
| N#CCC1CCN(c2nc(Nc3ccc(N4CCN(CCF)CC4)cc3)c3c(=O)[nH]ncc3n2)CC1 [Example 276] | UniProt O60674 | < 50 nM |
| O=c1[nH]ncc2nc(-c3ccsc3)nc(Nc3ccc(CN4CCNCC4)cc3)c12 [Example 24, hydrochloride] | UniProt O60674 | < 100 nM |
| N#CCC1CCN(c2nc(Nc3ccc(N4CCN(CCO)CC4)cc3)c3c(=O)[nH]ncc3n2)CC1 [Example 191] | UniProt O60674 | < 10 nM |
| Cl.O=c1[nH]ncc2nc(-c3ccccc3)nc(Nc3ccc(CN4CCNCC4)cc3)c12 [Example 7, hydrochloride] | UniProt O60674 | < 50 nM |
| O=c1[nH]ncc2nc(N3CCCCCC3)nc(Nc3ccc(OCCCN4CCNCC4)cc3)c12 [Example 136] | UniProt O60674 | < 50 nM |
| CC1(O)CCN(CCc2ccc(Nc3nc(N4CCCCCC4)nc4cn[nH]c(=O)c34)cc2)CC1 [Example 210] | UniProt O60674 | < 10 nM |
| O=c1[nH]ncc2nc(N3CCCCCC3)nc(Nc3ccc(CCN4CCN(CCO)CC4)cc3)c12 [Example 211] | UniProt O60674 | < 50 nM |
| COc1cccc(-c2nc(Nc3ccc(CN4CCNCC4)cc3)c3c(=O)[nH]ncc3n2)c1 [Example 31, hydrochloride] | UniProt O60674 | > 100 nM |
| CCN1CCN(c2ccc(Nc3nc(-c4ccccc4)nc4cn[nH]c(=O)c34)cc2)CC1 [Example 5] | UniProt O60674 | < 50 nM |
